Collected PBM binding z-score values appear next to each entry.
Tested on: RARb:RXRa (NR concentration 270 nM, RXRa partner concentration 90 nM)
Assay: PBM binding z-score (relative to random genomic background probes); higher = stronger binding; sequences stand for … in GC…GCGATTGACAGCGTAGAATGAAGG
Just the number.

sequence-input	PBM binding z-score
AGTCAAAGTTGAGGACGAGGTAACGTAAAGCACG	1.46
AATACAGGGTCATCTTAGGCCAGAGTACGCACAG	4.22
CCGAATAGGTTACGAGGGGGCATTCAGTGCGAAT	2.89
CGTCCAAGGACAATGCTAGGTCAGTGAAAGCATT	2.03
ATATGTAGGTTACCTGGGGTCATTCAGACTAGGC	3.18

With those in mind, consider the next sequence.
## Task Record request: PBM binding z-score value, item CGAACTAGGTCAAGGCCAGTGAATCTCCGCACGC
## Result 4.11
